Measured values drawn from patent US11149018B2 for this set.

Listed next: entries and their corresponding pIC50.
Molecular target: FP receptor (Homo sapiens (Human), UniProt P43088)
Sequence (P43088 whole entry): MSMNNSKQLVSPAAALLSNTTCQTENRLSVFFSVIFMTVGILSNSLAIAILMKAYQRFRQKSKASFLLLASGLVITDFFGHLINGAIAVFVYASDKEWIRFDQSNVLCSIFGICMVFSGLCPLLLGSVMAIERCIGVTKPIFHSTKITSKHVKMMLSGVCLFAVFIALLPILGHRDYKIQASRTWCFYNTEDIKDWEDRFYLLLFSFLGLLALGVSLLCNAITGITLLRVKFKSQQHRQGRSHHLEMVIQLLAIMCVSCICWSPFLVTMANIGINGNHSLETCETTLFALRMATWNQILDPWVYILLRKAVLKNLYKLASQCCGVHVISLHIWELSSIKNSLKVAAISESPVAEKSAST
Test: In vitro test of inhibition of human FP receptor activity (PGF2α-induced calcium flux in FP-expressing CHEM1 cells)
Details: PGF2α 2 nM, some mean values of multiple determinations
On this scale, pIC50 is minus log10 of a concentration expressed in M (mol/L).

Sample records with pIC50:
[2H]C1([2H])N(c2nc3ccc(Br)cc3c(C(=O)NCC(CCC(=O)O)c3ccccc3OC(F)(F)F)c2C)C([2H])([2H])C([2H])([2H])C([2H])([2H])C1([2H])[2H] (single isomer, unassigned; (+)) [Example 271]; 8.20
Cc1c(N2CCCCCC2)nc2ccc(Br)cc2c1C(=O)NCC(CCC(=O)O)c1ccccc1C(F)(F)F (racemic) [Example 120]; 7.96
Cc1c(NCC2CC2)nc2ccc(Br)cc2c1C(=O)NCC(CCC(=O)O)c1ccccc1Cl (racemic) [Example 100]; 6.47

Turning now to a further record.
INPUT: Please look at this molecule and report its pIC50: Cc1c(N2CCCC(F)(F)C2)nc2ccc(Br)cc2c1C(=O)NCC(CCC(=O)O)c1ccccc1OC(F)(F)F (single isomer, unassigned; (-)) [Example 133]
OUTPUT: 8.70
